// provenance: PubChem BioAssay (NCI)

# Test system: TK-10 renal
# assay_notes: NCI-60 one-dose screen, 48 h (100 = growth as untreated, 0 = no growth, -100 = all killed)
# condition_notes: 10 µM unless noted
This is part of a sample that, as a whole, favours compounds with a hit. Of some 83,000 tested, about 20% had one in any assay. Activity calls are given as the source filed them. Rule for the calls: active = growth percent below 10; inactive = the rest.
We begin with a simple list: items and their reported growth.

Examples from the recorded data:
INSERT INTO measurements (smiles_data, target_of_assay, metric, value_reported) VALUES
  ('O=C1C(Cl)=C(Nc2ccc3cn[nH]c3c2)C(=O)c2ccccc21', 'TK-10 renal', 'growth', '19.8% (inactive)'),
  ('CCNc1cc2c(cc1Br)-c1ccccc1C2=O', 'TK-10 renal', 'growth', '104% (inactive)'),
  ('CC(C)=CC/C=C(/C)[C@H]1CC[C@]2(C)[C@@H]1CC[C@@H]1[C@@]3(C)CC/C(=N/O)C(C)(C)[C@@H]3CC[C@]12C', 'TK-10 renal', 'growth', '82% [100 µM] (inactive)'),
  ('C[C@@H](NC(=O)[C@@H](CC(=O)N1CCC(N2CCCCC2)CC1)N1C(=O)[C@@H](N2C(=O)OC[C@@H]2c2ccccc2)[C@H]1/C=C/c1cccc(Cl)c1)c1ccccc1', 'TK-10 renal', 'growth', '78.9% (inactive)');

Ask: Quick one: give measured growth for `CCN(CCO)CCC(=O)c1ccc([N+](=O)[O-])cc1`
Result: 99.8% (inactive)
